# system: MMP-9 (gelatinase-B) (Homo sapiens)
# Sequence (P14780 94-707, species assumed): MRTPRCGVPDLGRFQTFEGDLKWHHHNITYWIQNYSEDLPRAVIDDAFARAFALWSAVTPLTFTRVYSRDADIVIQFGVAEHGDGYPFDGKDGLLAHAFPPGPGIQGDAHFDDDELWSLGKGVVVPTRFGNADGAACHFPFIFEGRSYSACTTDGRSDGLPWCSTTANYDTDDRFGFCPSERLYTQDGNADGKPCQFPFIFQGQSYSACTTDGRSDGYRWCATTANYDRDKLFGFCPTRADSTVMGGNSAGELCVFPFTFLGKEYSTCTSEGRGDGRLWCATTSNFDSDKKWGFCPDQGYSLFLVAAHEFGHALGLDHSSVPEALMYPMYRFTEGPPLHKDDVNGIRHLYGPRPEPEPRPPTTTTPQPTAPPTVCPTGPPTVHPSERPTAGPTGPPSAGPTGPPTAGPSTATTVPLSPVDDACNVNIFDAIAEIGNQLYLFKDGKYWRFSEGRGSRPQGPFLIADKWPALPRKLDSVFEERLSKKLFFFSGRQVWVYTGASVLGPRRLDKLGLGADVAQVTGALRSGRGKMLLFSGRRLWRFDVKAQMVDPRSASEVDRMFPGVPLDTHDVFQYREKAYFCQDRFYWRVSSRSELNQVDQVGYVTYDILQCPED
# test-name: fluorescence-based MMP-9 inhibition assay
# Type: biochemical
# protocol-conditions: MMP-9, fluorescence based assay

molecule-smiles	units-symbol	IC50
O=C(NCc1ccc(-c2ccccc2)cc1)c1cccc(=O)n1O	µM	2.7

###

# system: MMP-8 (Homo sapiens, UniProt P22894)
# Sequence (P22894 101-467, species assumed): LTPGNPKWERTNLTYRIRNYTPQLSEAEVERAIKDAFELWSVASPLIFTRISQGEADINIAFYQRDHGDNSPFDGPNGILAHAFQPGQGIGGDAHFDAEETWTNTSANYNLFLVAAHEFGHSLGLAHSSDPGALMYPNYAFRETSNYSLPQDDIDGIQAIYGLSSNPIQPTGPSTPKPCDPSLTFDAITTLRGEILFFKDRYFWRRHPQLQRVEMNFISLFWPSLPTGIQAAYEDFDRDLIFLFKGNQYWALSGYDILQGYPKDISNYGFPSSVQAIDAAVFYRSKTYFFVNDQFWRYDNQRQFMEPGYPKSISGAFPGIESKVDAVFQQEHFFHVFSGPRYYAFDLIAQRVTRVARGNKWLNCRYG
pIC50: −log10 of the molar value.

molecule	pIC50
O=C(NCc1ccc(-c2ccccc2)cc1)c1cccc(=O)n1O [Compound 7, 1,2-HOPO-2]	7.12
